Origin of the recorded values: ChEMBL document CHEMBL2434925

- Assay info: Cytotoxicity against african green monkey Vero cells after 96 hrs by MTT assay
- Format: cell-based
- Measurement setup: chlorocebus sabaeus
Quantity kind: log10 CC50 at 96 h (log10 of the value in µM)

>  <Smiles>
COc1cc(NCc2cc(OC)c(OC)c(OC)c2)ccc1-c1cnco1

>  <Quantity kind>
log10 CC50 at 96 h

>  <Reported value>
1.62

$$$$
>  <Smiles>
COc1cc(NCc2ccsc2)ccc1-c1cnco1

>  <Quantity kind>
log10 CC50 at 96 h

>  <Reported value>
2.26

$$$$
>  <Smiles>
COc1c(C)c2c(c(O)c1C/C=C(\C)CCC(=O)O)C(=O)OC2

>  <Quantity kind>
log10 CC50 at 96 h

>  <Reported value>
2.80

$$$$
>  <Smiles>
COc1ccc(-c2cnco2)cc1NCc1ccc(C)s1

>  <Quantity kind>
log10 CC50 at 96 h

>  <Reported value>
1.63

$$$$
>  <Smiles>
COc1cc(/N=C/c2ccncc2)ccc1-c1cnco1

>  <Quantity kind>
log10 CC50 at 96 h

>  <Reported value>
2.38

$$$$
>  <Smiles>
COc1ccc(O)c(CNc2ccc(-c3cnco3)c(OC)c2)c1

>  <Quantity kind>
log10 CC50 at 96 h

>  <Reported value>
1.99

$$$$
>  <Smiles>
COc1ccc2[nH]cc(CNc3ccc(-c4cnco4)c(OC)c3)c2c1

>  <Quantity kind>
log10 CC50 at 96 h

>  <Reported value>
1.56

$$$$
>  <Smiles>
CCc1ccc(CNc2ccc(-c3cnco3)c(OC)c2)s1

>  <Quantity kind>
log10 CC50 at 96 h

>  <Reported value>
1.13

$$$$
>  <Smiles>
COc1cc(/N=C/c2ccc([N+](=O)[O-])o2)ccc1-c1cnco1

>  <Quantity kind>
log10 CC50 at 96 h

>  <Reported value>
1.14

$$$$
>  <Smiles>
COc1ccc(CNc2ccc(-c3cnco3)c(OC)c2)cc1

>  <Quantity kind>
log10 CC50 at 96 h

>  <Reported value>
1.38

$$$$
>  <Smiles>
COc1cc(NCc2csc3ccccc23)ccc1-c1cnco1

>  <Quantity kind>
log10 CC50 at 96 h

>  <Reported value>
1.10

$$$$
>  <Smiles>
COc1cc(NCc2cncs2)ccc1-c1cnco1

>  <Quantity kind>
log10 CC50 at 96 h

>  <Reported value>
2.37

$$$$
>  <Smiles>
COc1ccc(CNc2ccc(-c3cnco3)c(OC)c2)cn1

>  <Quantity kind>
log10 CC50 at 96 h

>  <Reported value>
2.57

$$$$
>  <Smiles>
COc1cc(/N=C/c2cccs2)ccc1-c1cnco1

>  <Quantity kind>
log10 CC50 at 96 h

>  <Reported value>
2.61

$$$$
>  <Smiles>
COc1cc(NCc2cccnc2Cl)ccc1-c1cnco1

>  <Quantity kind>
log10 CC50 at 96 h

>  <Reported value>
1.61

$$$$
>  <Smiles>
COc1cc(NCc2c[nH]c3ccccc23)ccc1-c1cnco1

>  <Quantity kind>
log10 CC50 at 96 h

>  <Reported value>
1.68

$$$$
>  <Smiles>
COc1cc(NCc2cccs2)ccc1-c1cnco1

>  <Quantity kind>
log10 CC50 at 96 h

>  <Reported value>
1.25

$$$$
>  <Smiles>
COc1cc(NCc2cc3ccccc3s2)ccc1-c1cnco1

>  <Quantity kind>
log10 CC50 at 96 h

>  <Reported value>
0.87

$$$$
>  <Smiles>
COc1cc(NCc2ccc(C)o2)ccc1-c1cnco1

>  <Quantity kind>
log10 CC50 at 96 h

>  <Reported value>
1.65

$$$$
>  <Smiles>
COc1cc(NC/C=C/c2ccccc2)ccc1-c1cnco1

>  <Quantity kind>
log10 CC50 at 96 h

>  <Reported value>
1.86

$$$$
>  <Smiles>
COc1cc(NCc2scnc2C)ccc1-c1cnco1

>  <Quantity kind>
log10 CC50 at 96 h

>  <Reported value>
1.87

$$$$
>  <Smiles>
COc1cc(NCc2ccco2)ccc1-c1cnco1

>  <Quantity kind>
log10 CC50 at 96 h

>  <Reported value>
1.76

$$$$
>  <Smiles>
COc1cc(NCc2ccc(-c3ccccc3)s2)ccc1-c1cnco1

>  <Quantity kind>
log10 CC50 at 96 h

>  <Reported value>
0.83

$$$$
>  <Smiles>
COc1cc(NCc2ccncc2)ccc1-c1cnco1

>  <Quantity kind>
log10 CC50 at 96 h

>  <Reported value>
2.53

$$$$
>  <Smiles>
COc1ccccc1/C=C/CNc1ccc(-c2cnco2)c(OC)c1

>  <Quantity kind>
log10 CC50 at 96 h

>  <Reported value>
1.10

$$$$
>  <Smiles>
COc1ccc(-c2cnco2)cc1NCc1cccs1

>  <Quantity kind>
log10 CC50 at 96 h

>  <Reported value>
1.73

$$$$
>  <Smiles>
NC(=O)c1ncn([C@@H]2O[C@H](CO)[C@@H](O)[C@H]2O)n1

>  <Quantity kind>
log10 CC50 at 96 h

>  <Reported value>
3.91

$$$$
>  <Smiles>
COc1cc(NCc2ccc(C)s2)ccc1-c1cnco1

>  <Quantity kind>
log10 CC50 at 96 h

>  <Reported value>
1.39

$$$$
>  <Smiles>
COc1cc(NCc2ccc(Br)s2)ccc1-c1cnco1

>  <Quantity kind>
log10 CC50 at 96 h

>  <Reported value>
1.67

$$$$
>  <Smiles>
COc1cc(NCc2ccc(OC)c(OC)c2OC)ccc1-c1cnco1

>  <Quantity kind>
log10 CC50 at 96 h

>  <Reported value>
1.46

$$$$
>  <Smiles>
COc1cc(NCc2ccc(C(=O)O)s2)ccc1-c1cnco1

>  <Quantity kind>
log10 CC50 at 96 h

>  <Reported value>
2.54

$$$$
>  <Smiles>
COc1cc(NCc2ccc(Cl)s2)ccc1-c1cnco1

>  <Quantity kind>
log10 CC50 at 96 h

>  <Reported value>
1.73

$$$$
>  <Smiles>
COc1cc(/N=C/c2ccc(F)cc2)ccc1-c1cnco1

>  <Quantity kind>
log10 CC50 at 96 h

>  <Reported value>
2.51

$$$$
>  <Smiles>
COc1cc(NCc2cccc(C)n2)ccc1-c1cnco1

>  <Quantity kind>
log10 CC50 at 96 h

>  <Reported value>
1.88

$$$$
>  <Smiles>
COc1cc(/N=C/C=C/c2ccccc2)ccc1-c1cnco1

>  <Quantity kind>
log10 CC50 at 96 h

>  <Reported value>
2.02

$$$$
